Here the recorded protein stability index is given for each entry.
# Test system: Saccharomyces cerevisiae
# Assay summary: protein stability index of tFT-peptide fusion (C-terminal peptide) (PSI (0-1 scale)); higher = more stable (slower turnover)
# Condition set: genetic background: cdc53-1; temperature: 37 C
Lab note: record just the number, no unit beside it.

QUERY: Field request: protein stability index | item: "LVIFSLLFSFSH"
RESULT: 0.325

QUERY: Field request: protein stability index | item: "GLACNPQLLRWT"
RESULT: 0.743

QUERY: Field request: protein stability index | item: "FKYRVPLVGVVK"
RESULT: 0.317

QUERY: Field request: protein stability index | item: "FSGRYFLLFRFL"
RESULT: 0.28

QUERY: Field request: protein stability index | item: "WFLVFLRVGDGP"
RESULT: 0.566

QUERY: Field request: protein stability index | item: "LVGWSWRGWFVV"
RESULT: 0.69

QUERY: Field request: protein stability index | item: "WNIVKHREDMLS"
RESULT: 0.768

QUERY: Field request: protein stability index | item: "FVCWGSLILCGG"
RESULT: 0.183

QUERY: Field request: protein stability index | item: "VIRIRLSCSVDV"
RESULT: 0.42

QUERY: Field request: protein stability index | item: "SINKLLILIKSI"
RESULT: 0.618

Now for a further sequence.
QUERY: Field request: protein stability index | item: "HWVRLSSLAFVS"
RESULT: 0.289

* * *

# Tested on: Saccharomyces cerevisiae
# Assay summary: protein stability index of tFT-peptide fusion (C-terminal peptide) (PSI (0-1 scale)); higher = more stable (slower turnover)
# Condition set: genetic background: cdc53-1; temperature: 37 C
Test readout: protein stability index
Lab note: record just the number, no unit beside it.

QUERY: Saccharomyces cerevisiae / protein stability index / "TCPFTIHRLKVG" : value?
RESULT: 0.748

---
QUERY: Saccharomyces cerevisiae / protein stability index / "CLNPCVRWDGHV" : value?
RESULT: 0.759

QUERY: Saccharomyces cerevisiae / protein stability index / "FLLPWLRPVFFF" : value?
RESULT: 0.607

QUERY: Saccharomyces cerevisiae / protein stability index / "RAVLRFVMVWVL" : value?
RESULT: 0.611

QUERY: Saccharomyces cerevisiae / protein stability index / "IRHALHFRVVAV" : value?
RESULT: 0.545

QUERY: Saccharomyces cerevisiae / protein stability index / "SFFSQAIPILAA" : value?
RESULT: 0.039

QUERY: Saccharomyces cerevisiae / protein stability index / "VRFGYGRIVWDI" : value?
RESULT: 0.789

QUERY: Saccharomyces cerevisiae / protein stability index / "ILRAGITYVYAV" : value?
RESULT: 0.544

QUERY: Saccharomyces cerevisiae / protein stability index / "YWFWLLIGSFSC" : value?
RESULT: 0.51

QUERY: Saccharomyces cerevisiae / protein stability index / "CFCLFVFFISSC" : value?
RESULT: 0.414

QUERY: Saccharomyces cerevisiae / protein stability index / "IFVFVSFPSCVL" : value?
RESULT: 0.644

QUERY: Saccharomyces cerevisiae / protein stability index / "HFASPPAPRSNL" : value?
RESULT: 0.819

QUERY: Saccharomyces cerevisiae / protein stability index / "VLRACCDWGFLV" : value?
RESULT: 0.696

QUERY: Saccharomyces cerevisiae / protein stability index / "ESFIKFALYIVN" : value?
RESULT: 0.604

QUERY: Saccharomyces cerevisiae / protein stability index / "LCYFFFISLFLG" : value?
RESULT: 0.572

QUERY: Saccharomyces cerevisiae / protein stability index / "GIVYFDQWISVS" : value?
RESULT: 0.538

QUERY: Saccharomyces cerevisiae / protein stability index / "APGLLPPCLLVV" : value?
RESULT: 0.387

QUERY: Saccharomyces cerevisiae / protein stability index / "GPGTWLFCFVRF" : value?
RESULT: 0.55

QUERY: Saccharomyces cerevisiae / protein stability index / "LFLIFFSFLFLC" : value?
RESULT: 0.0847

* * *

# Test system: Saccharomyces cerevisiae
# Assay summary: protein stability index of tFT-peptide fusion (C-terminal peptide) (PSI (0-1 scale)); higher = more stable (slower turnover)
# Condition set: genetic background: wild type; temperature: 30 C
Here the recorded protein stability index is given for each entry.
Lab note: record just the number, no unit beside it.

QUERY: Field request: protein stability index | item: "RYHLHFIGDVGF"
RESULT: 0.697

QUERY: Field request: protein stability index | item: "HLFNLVRIRTDL"
RESULT: 0.703

QUERY: Field request: protein stability index | item: "NLFVFLSYLFNV"
RESULT: 0.422

QUERY: Field request: protein stability index | item: "RHYKNKGQTRVR"
RESULT: 0.699

QUERY: Field request: protein stability index | item: "GKRKEAVLRMMI"
RESULT: 0.621

QUERY: Field request: protein stability index | item: "RVSGSFSCVCES"
RESULT: 0.681

---
QUERY: Field request: protein stability index | item: "RPGSMWAQGGVG"
RESULT: 0.566

QUERY: Field request: protein stability index | item: "LTAKDSRGLFRP"
RESULT: 0.706

QUERY: Field request: protein stability index | item: "QIRRPRRFFYVS"
RESULT: 0.642

QUERY: Field request: protein stability index | item: "DGKGLRATWQWS"
RESULT: 0.737

* * *

Here the recorded protein stability index is given for each entry.
# Test system: Saccharomyces cerevisiae
# Assay summary: protein stability index of tFT-peptide fusion (C-terminal peptide) (PSI (0-1 scale)); higher = more stable (slower turnover)
# Condition set: genetic background: wild type; temperature: 30 C
Lab note: record just the number, no unit beside it.

Example entries begin here.
QUERY: Field request: protein stability index | item: SMHAFLCKIYKR [YCR095W-A C-terminal 12 aa]
RESULT: 0.676

QUERY: Field request: protein stability index | item: KHCPYVFIPYVF [ERG4 C-terminal 12 aa]
RESULT: 0.273

QUERY: Field request: protein stability index | item: GHLSSSRRRLRT [SUV3 C-terminal 12 aa]
RESULT: 0.7

QUERY: Field request: protein stability index | item: CWENVRKTRAAK [PSO2 C-terminal 12 aa]
RESULT: 0.697

QUERY: Field request: protein stability index | item: TDIENRNFRYIY [THI73 C-terminal 12 aa]
RESULT: 0.702

---
QUERY: Field request: protein stability index | item: NILPMTYLLKKK [DPI34 C-terminal 12 aa]
RESULT: 0.641

QUERY: Field request: protein stability index | item: VLMLETIAYLFS [NFG1 C-terminal 12 aa]
RESULT: 0.506

QUERY: Field request: protein stability index | item: LVAIDPRSEAYC [YMR324C C-terminal 12 aa]
RESULT: 0.671

QUERY: Field request: protein stability index | item: PLGVQFLDTFRR [DSC2 C-terminal 12 aa]
RESULT: 0.736

QUERY: Field request: protein stability index | item: LAWNPNLSAKRF [PRP46 C-terminal 12 aa]
RESULT: 0.705

QUERY: Field request: protein stability index | item: ARIWKYKKIAPN [TUP1 C-terminal 12 aa]
RESULT: 0.706

QUERY: Field request: protein stability index | item: IMALIAESGDDF [ERV14 C-terminal 12 aa]
RESULT: 0.701

* * *

Here the recorded protein stability index is given for each entry.
# Tested on: Saccharomyces cerevisiae
# Assay summary: protein stability index of tFT-peptide fusion (C-terminal peptide) (PSI (0-1 scale)); higher = more stable (slower turnover)
# Condition set: genetic background: wild type; temperature: 30 C

Example entries begin here.
QUERY: Field request: protein stability index | item: QDELDAMKEMGF [CSM3 C-terminal 12 aa]
RESULT: 0.699

QUERY: Field request: protein stability index | item: IYSVTKKRNTRI [RSF2 C-terminal 12 aa]
RESULT: 0.693

QUERY: Field request: protein stability index | item: YITTPSSSGHAL [YIL141W C-terminal 12 aa]
RESULT: 0.674

QUERY: Field request: protein stability index | item: YKLGPGEDTATK [DPL1 C-terminal 12 aa]
RESULT: 0.702

QUERY: Field request: protein stability index | item: IEQEAKQRERNQ [COA6 C-terminal 12 aa]
RESULT: 0.701

Now for a further sequence.
QUERY: Field request: protein stability index | item: AVVLQSIQFTSE [IML3 C-terminal 12 aa]
RESULT: 0.608

* * *

# Tested on: Saccharomyces cerevisiae
# Assay summary: protein stability index of tFT-peptide fusion (C-terminal peptide) (PSI (0-1 scale)); higher = more stable (slower turnover)
# Condition set: genetic background: wild type; temperature: 30 C
Here the recorded protein stability index is given for each entry.
Lab note: record just the number, no unit beside it.

Example entries begin here.
QUERY: Field request: protein stability index | item: "KTRPVCKVSCKL"
RESULT: 0.77

QUERY: Field request: protein stability index | item: "VLEKFFFGLAIL"
RESULT: 0.569

QUERY: Field request: protein stability index | item: "WVLGGVAPPAVL"
RESULT: 0.694

QUERY: Field request: protein stability index | item: "GGGGSVGGGALR"
RESULT: 0.651

---
QUERY: Field request: protein stability index | item: "RGTVPHSLDLYL"
RESULT: 0.679

QUERY: Field request: protein stability index | item: "VGAPPCYPVSRL"
RESULT: 0.74

QUERY: Field request: protein stability index | item: "TLEHRHPAIHPE"
RESULT: 0.723

QUERY: Field request: protein stability index | item: "VKYSIEVKRKKK"
RESULT: 0.718

QUERY: Field request: protein stability index | item: "FVLWLIYVDLFF"
RESULT: 0.287

QUERY: Field request: protein stability index | item: "VGGRLLFVGKRG"
RESULT: 0.669

Attribution: the supplement of paper PMC10724198
